Let's go through some recorded ΔTm values for Serine/threonine-protein kinase 38 (Homo sapiens) (UniProt Q15208) together.
Quantity Kind: ΔTm (°C)

INSERT INTO measurements (compound, target_entity, assay_value) VALUES
  ('O=C(Nc1cccc(Nc2nccc(Nc3cccc(C(F)(F)F)c3)n2)c1)C1CC1', 'Serine/threonine-protein kinase 38 (Homo sapiens) (UniProt Q15208)', 0.4),
  ('O=c1cc(-c2ccc(O)cc2)oc2cc(O)cc(O)c12', 'Serine/threonine-protein kinase 38 (Homo sapiens) (UniProt Q15208)', 1.1),
  ('CCCNC(=O)Nc1ccc(Oc2ncnc3cc(OC)c(OC)cc23)cc1Cl', 'Serine/threonine-protein kinase 38 (Homo sapiens) (UniProt Q15208)', 1.6),
  ('O=C1Nc2cc(Br)ccc2/C1=C1/Nc2ccccc2/C1=N\O', 'Serine/threonine-protein kinase 38 (Homo sapiens) (UniProt Q15208)', 2.6),
  ('CC(C)c1cc(/C=C(\C#N)C(=O)NCCCc2ccccc2)cc(C(C)C)c1O', 'Serine/threonine-protein kinase 38 (Homo sapiens) (UniProt Q15208)', 0.7),
  ('CCN(CC)CCNC(=O)c1c(C)[nH]c(/C=C2\C(=O)Nc3ccc(F)cc32)c1C', 'Serine/threonine-protein kinase 38 (Homo sapiens) (UniProt Q15208)', 5.6),
  ('C/C(O)=C(\C#N)C(=O)Nc1cc(Br)ccc1Br', 'Serine/threonine-protein kinase 38 (Homo sapiens) (UniProt Q15208)', -0.1),
  ('N#C/C(=C(/N)Sc1ccc(N)cc1)c1ccccc1C(F)(F)F', 'Serine/threonine-protein kinase 38 (Homo sapiens) (UniProt Q15208)', 0.4),
  ('CSc1nc(-c2ccc(F)cc2)c(-c2ccnc(NC(C)c3ccccc3)c2)[nH]1 (racemic)', 'Serine/threonine-protein kinase 38 (Homo sapiens) (UniProt Q15208)', 0.3),
  ('O=Nc1c(-c2c(O)[nH]c3ccccc23)[nH]c2ccccc12', 'Serine/threonine-protein kinase 38 (Homo sapiens) (UniProt Q15208)', 2.7),
  ('NC(=O)c1ccc2[nH]c(-c3ccc(Oc4ccc(Cl)cc4)cc3)nc2c1', 'Serine/threonine-protein kinase 38 (Homo sapiens) (UniProt Q15208)', 1.7);

From: ChEMBL document CHEMBL1145498
